test system: protein kinase C epsilon (Homo sapiens)
Sequence (Q02156 whole entry): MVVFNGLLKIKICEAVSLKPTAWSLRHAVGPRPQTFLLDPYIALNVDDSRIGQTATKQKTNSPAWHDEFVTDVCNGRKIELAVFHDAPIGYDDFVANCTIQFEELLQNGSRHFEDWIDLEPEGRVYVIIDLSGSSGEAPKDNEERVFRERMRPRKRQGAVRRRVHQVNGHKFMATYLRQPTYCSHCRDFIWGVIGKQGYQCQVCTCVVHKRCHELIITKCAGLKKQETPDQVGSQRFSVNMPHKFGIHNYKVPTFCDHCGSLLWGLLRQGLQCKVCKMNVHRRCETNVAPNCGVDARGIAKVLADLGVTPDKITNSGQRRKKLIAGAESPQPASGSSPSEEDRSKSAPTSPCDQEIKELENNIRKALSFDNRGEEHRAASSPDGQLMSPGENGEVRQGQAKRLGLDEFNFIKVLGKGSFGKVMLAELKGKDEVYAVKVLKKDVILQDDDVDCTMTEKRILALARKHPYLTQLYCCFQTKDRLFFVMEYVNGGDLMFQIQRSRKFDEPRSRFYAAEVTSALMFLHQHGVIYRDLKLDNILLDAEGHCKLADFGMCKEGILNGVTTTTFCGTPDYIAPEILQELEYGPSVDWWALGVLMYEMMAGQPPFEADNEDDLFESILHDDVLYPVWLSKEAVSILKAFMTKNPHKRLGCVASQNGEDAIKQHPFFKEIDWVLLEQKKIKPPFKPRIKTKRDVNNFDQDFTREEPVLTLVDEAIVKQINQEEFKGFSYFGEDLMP
procedure summary: PKC Enzyme assay, epsilon isozyme
Type: biochemical
settings: PKC epsilon; 30 μM ATP, 30° C., 10 minutes; read-out: IC50 ε
Could you mark each record class 1 if its IC50 falls strictly under 5 µM, and class 0 if it equals or exceeds it?

Please check: IC50 for CN(C)CCCn1cc(C2=C(c3cn(C)c4ccccc34)C(=O)NC2=O)c2ccccc21 [Example 13] , strictly under 5 µM or not?
class 1

More entries:
Please check: IC50 for Cn1cc(C2=C(c3cn(CCO[C@@H]4O[C@H](CN=[N+]=[N-])[C@H](O)[C@H](O)[C@H]4O)c4ccccc34)C(=O)NC2=O)c2ccccc21 [Example 57] , strictly under 5 µM or not?
class 0

Please check: IC50 for CCN1CCC(n2cc(C3=C(c4cn(C)c5ccccc45)C(=O)NC3=O)c3ccccc32)CC1 [Example 40] , strictly under 5 µM or not?
class 1

Please check: IC50 for CCOC(=O)N1CCC(Cn2cc(C3=C(c4cn(C)c5ccccc45)C(=O)NC3=O)c3ccccc32)CC1 [Example 69] , strictly under 5 µM or not?
class 0

Please check: IC50 for Cn1cc(C2=C(c3cn(CCO[C@@H]4C[C@H](O)[C@@H](CN=[N+]=[N-])O4)c4ccccc34)C(=O)NC2=O)c2ccccc21 [Example 58] , strictly under 5 µM or not?
class 0

Please check: IC50 for Cn1cc(C2=C(c3cn(CCOC4O[C@H](CO)[C@@H](O)[C@@H](N)[C@H]4O)c4ccccc34)C(=O)NC2=O)c2ccccc21 (stereo partly drawn) [Example 67] , strictly under 5 µM or not?
class 0

Please check: IC50 for Cn1cc(C2=C(c3cn(CCOC4O[C@H](CO)[C@@H](O)[C@@H](N=[N+]=[N-])[C@H]4O)c4ccccc34)C(=O)NC2=O)c2ccccc21 (stereo partly drawn) [Example 59] , strictly under 5 µM or not?
class 0

Please check: IC50 for CN1CCC(n2cc(C3=C(c4c[nH]c5ccccc45)C(=O)NC3=O)c3ccccc32)CC1 [Example 51] , strictly under 5 µM or not?
class 1

Please check: IC50 for O=C1NC(=O)C(c2cn(Cc3ccccc3)c3ccccc23)=C1c1c[nH]c2ccccc12 [Example 14] , strictly under 5 µM or not?
class 0

Please check: IC50 for Cn1cc(C2=C(c3cn(CCOC4C[C@@H](N=[N+]=[N-])[C@@H](CO)O4)c4ccccc34)C(=O)NC2=O)c2ccccc21 (stereo partly drawn) [Example 62] , strictly under 5 µM or not?
class 0

Please check: IC50 for Cn1cc(C2=C(c3cn(C4CN(C(c5ccccc5)c5ccccc5)C4)c4ccccc34)C(=O)NC2=O)c2ccccc21 [Example 72] , strictly under 5 µM or not?
class 0

Please check: IC50 for CN1CCC(Cn2cc(C3=C(c4cn(C)c5ccccc45)C(=O)NC3=O)c3ccccc32)CC1 [Example 68] , strictly under 5 µM or not?
class 1

----------
For each entry below, report its IC50 value.
test system: protein kinase C alpha (Homo sapiens)
procedure summary: PKC Enzyme assay, alpha isozyme
Format: biochemical
settings: PKC alpha; 30 μM ATP, 30° C., 10 minutes; read-out: IC50 α
Please answer using the number first and the unit second.

Please review the following examples before continuing.
Can you look up IC50 on protein kinase C alpha (Homo sapiens) for "CN(C)CCCN1CCC(n2cc(C3=C(c4cn(C)c5ccccc45)C(=O)NC3=O)c3ccccc32)CC1" ?
3 µM

Can you look up IC50 on protein kinase C alpha (Homo sapiens) for Cn1cc(C2=C(c3cn(CCOC4C[C@H](N=[N+]=[N-])[C@@H](CO)O4)c4ccccc34)C(=O)NC2=O)c2ccccc21 (stereo partly shown) ?
3.6 µM

Can you look up IC50 on protein kinase C alpha (Homo sapiens) for CC(=O)NCC1OC(OCCCCn2cc(C3=C(c4cn(C)c5ccccc45)C(=O)NC3=O)c3ccccc32)CC1OC(C)=O (stereo not shown) ?
2.3 µM

Can you look up IC50 on protein kinase C alpha (Homo sapiens) for "CCOC(=O)N1CCC(Cn2cc(C3=C(c4cn(C)c5ccccc45)C(=O)NC3=O)c3ccccc32)CC1" ?
6.5 µM

State the recorded IC50 for every item in the following list.
1. CC(=O)N1CCC(n2cc(C3=C(c4cn(C)c5ccccc45)C(=O)NC3=O)c3ccccc32)CC1
2. Cn1cc(C2=C(c3cn(CCO[C@@H]4O[C@H](CN=[N+]=[N-])[C@H](O)[C@H](O)[C@H]4O)c4ccccc34)C(=O)NC2=O)c2ccccc21
3. Cn1cc(C2=C(c3cn(CCOC4O[C@H](CO)[C@@H](O)[C@@H](N)[C@H]4O)c4ccccc34)C(=O)NC2=O)c2ccccc21 (stereo partly shown)

0.3 µM
10 µM
6.6 µM

Origin of values: patent US5668152A
